melting point values, listed per item
Recorded Endpoint: melting point

Compound	Recorded Endpoint	Observed Measurement
Cc1cc2c(cc1N1CC(C)C(C)C1)OC(=O)C2C (stereo not given)	melting point	104 to 105 °C
N#CSc1cc(Cl)c(NCCC(=O)O)cc1Cl	melting point	133 to 135 °C
CC=CC(=O)C1C(C)C(=O)CCC1(C)C (stereo not given)	melting point	76 to 77 °C
COc1ccc(C(C#Cc2ccccc2)Cc2nnc(C)o2)cc1OC1CCCC1 (racemic)	melting point	105 to 106 °C
CS(=O)(=O)c1ccc(C2=C(c3ccccc3)C(=O)c3ccccc32)cc1	melting point	167 to 168 °C
CCCCn1c(=O)n(OCc2ccccc2)c(=O)c2cc(F)c(Cl)nc21	melting point	147 to 148 °C
CCOCc1nc2c(N)nc3cc(OCCCCCCNC(C)=O)ccc3c2n1CC(C)(C)NS(C)(=O)=O	melting point	169 to 171 °C
COC(=O)CCCCc1csc(N)n1	melting point	131 °C
O=C(CCCCCCNC(=O)C(=O)c1cn2c3c(cccc13)CCC2)NOC1CCCCO1 (stereo not given)	melting point	140 to 142 °C
N#Cc1ccc(N(Cc2ccc(OS(N)(=O)=O)c(Br)c2)n2cnnc2)cc1-c1cc2ccccc2o1	melting point	199 to 200 °C

* * *

melting point values, listed per item
Recorded Endpoint: melting point

Molecule	Recorded Endpoint	Observed Measurement
COc1ccc(OCCOc2ccc(C(=O)C(=O)O)cc2)cc1OC	melting point	140 to 141 °C
Cc1ccc2c(c1)c1cc(C(=O)N3CCOCC3)sc1n2C	melting point	158 to 160 °C
ClCc1cnc(Cl)cc1Cl	melting point	55 to 56 °C
CCCC(=O)OCC(CO)CCn1cnc2cnc(N)nc21 (stereo unspecified)	melting point	125 to 127 °C
CC1(C)Oc2cc(Br)sc2C(N2CCCC2=O)C1O (stereo unspecified)	melting point	162 to 165 °C
Cc1c(-c2ccccc2)nc(C(C)C)c(CO)c1-c1ccc(F)cc1	melting point	182 to 184 °C
COC1=CC(=O)C(OC)=C(CCCC2=C(OC)C(=O)C=C(OC)C2=O)C1=O	melting point	157 to 159 °C
Fc1ccc(Cn2c(NCCN3CCC(Nc4nc5ccccc5n4Cc4ccc(F)cc4)CC3)nc3ccccc32)cc1	melting point	197 °C
COC(=O)CCCCCCCC(=O)Nc1c(I)c(C(=O)O)c(I)c(N(C)C(C)=O)c1I	melting point	198 to 203 °C
COc1cc(OC)c(-c2cc3ccccc3[nH]2)cc1C=CC(=O)c1ccc(S(N)(=O)=O)cc1	melting point	185 to 187 °C
COC12CC(CCOC(=O)c3cncc(Br)c3)CN(C)C1Cc1cn(C)c3cccc2c13 (stereo unspecified)	melting point	187 to 190 °C
CCCCOC(=O)C(CC(=O)O)NCCCN(C)C (stereo unspecified)	melting point	154 to 158 °C
O=C1CC(c2ccc(Cl)cc2)CC(=O)N1c1ccncc1	melting point	204 to 206 °C
CC(C)(C)OC(=O)Nc1ccc(-c2ccc(S(=O)(=O)n3ccc(/C=C/C(=O)NOC4CCCCO4)c3)cc2)cn1 (stereo unspecified)	melting point	140 to 146 °C
COCn1c(C)nc2c(O)cc(C(=O)N(C)C)cc21	melting point	173 to 183 °C
CC(=O)OC1CSC(Oc2cncc(-c3cnccc3C)c2)C(OC(C)=O)C1OC(C)=O (stereo unspecified)	melting point	165 °C
CCOc1c(-c2ccc(N(C)C)c(O)c2)c(=O)c1=O	melting point	> 182 °C
CC[C@@H](CO)[C@](O)(Cn1cncn1)c1ccc(F)cc1F	melting point	75 to 77 °C
COc1ccc(S(=O)(=O)Nc2c(C)cc(C#N)cc2C(=O)O)cc1	melting point	175 °C
COCCOc1ccc(CC(OC)C(=O)O)c(Oc2ncc(C(F)(F)F)cc2Cl)c1 (stereo unspecified)	melting point	93 to 96 °C
COc1ccc(Nc2nc(Cl)nc(NC3CC3)n2)cc1F	melting point	186 °C
